Molecular target: Biotin-His6-PXR/RXRα (Homo sapiens)
Sequence (O75469 with tags, fused parts or gaps): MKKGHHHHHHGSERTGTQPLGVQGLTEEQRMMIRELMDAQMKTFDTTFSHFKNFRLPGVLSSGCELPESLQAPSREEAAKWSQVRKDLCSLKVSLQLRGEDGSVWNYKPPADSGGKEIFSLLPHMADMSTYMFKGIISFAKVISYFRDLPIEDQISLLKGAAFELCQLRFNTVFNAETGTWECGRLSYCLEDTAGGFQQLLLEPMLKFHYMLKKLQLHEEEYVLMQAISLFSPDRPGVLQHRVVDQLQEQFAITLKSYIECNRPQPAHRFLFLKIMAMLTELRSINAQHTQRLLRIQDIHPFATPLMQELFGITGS
Sequence (P19793 with tags, fused parts or gaps partner limits assumed): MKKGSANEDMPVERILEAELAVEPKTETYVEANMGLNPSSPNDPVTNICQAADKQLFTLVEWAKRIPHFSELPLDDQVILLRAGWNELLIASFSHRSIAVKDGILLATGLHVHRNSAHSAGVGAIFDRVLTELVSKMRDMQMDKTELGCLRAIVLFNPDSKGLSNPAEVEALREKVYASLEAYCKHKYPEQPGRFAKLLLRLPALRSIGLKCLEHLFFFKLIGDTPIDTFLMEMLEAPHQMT
Experiment: biochemical
Quantity kind: pIC50
Answer as the number alone; pIC50 is minus log10 of concentration in mol/L.

>>> print(df.to_string())
                                   compound  quantity_kind  assay_value
0  Clc1ccccc1C(c1ccccc1)(c1ccccc1)n1ccnc1 [clotrimazole]          pIC50         5.89

Now for the compound whose pIC50 we want.
Fill in the blank: the reported pIC50 of CC(=O)[C@H]1CC[C@H]2[C@@H]3CC[C@@H]4CC(=O)CC[C@]4(C)[C@H]3CC[C@]12C [5 β-pregnane-3,20-dione] is ____.
6.00
